Readings of log10 of GI50 for the listed molecules
tested on: SF-539; test: Concentration required to inhibit the growth of SF-539 human CNS cancer cells by 50%; assay type: functional
property_measured: log10 of GI50 (log10 of the value in nM)

{"molecule": "CCc1cc2c(cc1O)CC[C@@H]1[C@@H]2CC[C@]2(C)[C@@H](O)CC[C@@H]12", "test_system": "SF-539", "property_measured": "log10 of GI50", "value": 3.52}
{"molecule": "CSc1cc2c(cc1OS(N)(=O)=O)CC[C@@H]1[C@@H]2CC[C@]2(C)C(=O)CC[C@@H]12", "test_system": "SF-539", "property_measured": "log10 of GI50", "value": 1.65}
{"molecule": "COc1cc2c(cc1OS(N)(=O)=O)CC[C@@H]1[C@@H]2CC[C@]2(C)C(=O)CC[C@@H]12", "test_system": "SF-539", "property_measured": "log10 of GI50", "value": 2.08}
{"molecule": "CCSc1cc2c(cc1OS(N)(=O)=O)CC[C@@H]1[C@@H]2CC[C@]2(C)C(=O)CC[C@@H]12", "test_system": "SF-539", "property_measured": "log10 of GI50", "value": 3.15}
{"molecule": "CSc1cc2c(cc1O)CC[C@@H]1[C@@H]2CC[C@]2(C)C(=O)CC[C@@H]12", "test_system": "SF-539", "property_measured": "log10 of GI50", "value": 4.15}
{"molecule": "COc1cc2c(cc1O)CC[C@@H]1[C@@H]2CC[C@]2(C)[C@@H](O)CC[C@@H]12 [2-METHOXYESTRADIOL]", "test_system": "SF-539", "property_measured": "log10 of GI50", "value": 2.51}
{"molecule": "CCSc1cc2c(cc1O)CC[C@@H]1[C@@H]2CC[C@]2(C)[C@@H](O)CC[C@@H]12", "test_system": "SF-539", "property_measured": "log10 of GI50", "value": 4.20}

---

Molecular target: Steryl-sulfatase (Homo sapiens)
Sequence (P08842 whole entry): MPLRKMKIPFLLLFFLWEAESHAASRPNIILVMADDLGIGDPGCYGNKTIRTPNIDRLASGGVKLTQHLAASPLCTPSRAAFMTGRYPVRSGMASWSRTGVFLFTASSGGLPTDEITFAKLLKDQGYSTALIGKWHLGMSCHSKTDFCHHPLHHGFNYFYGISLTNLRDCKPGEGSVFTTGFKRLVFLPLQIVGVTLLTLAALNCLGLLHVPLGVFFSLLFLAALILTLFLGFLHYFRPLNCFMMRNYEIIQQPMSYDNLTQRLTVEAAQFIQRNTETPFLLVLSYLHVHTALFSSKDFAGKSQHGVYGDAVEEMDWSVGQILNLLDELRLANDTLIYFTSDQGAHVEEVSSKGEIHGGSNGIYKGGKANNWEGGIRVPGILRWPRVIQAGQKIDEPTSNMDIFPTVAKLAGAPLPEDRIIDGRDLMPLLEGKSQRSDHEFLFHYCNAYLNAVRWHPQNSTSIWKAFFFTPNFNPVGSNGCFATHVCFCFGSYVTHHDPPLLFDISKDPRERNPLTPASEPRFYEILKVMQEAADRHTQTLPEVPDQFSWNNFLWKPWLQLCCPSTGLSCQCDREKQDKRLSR
pIC50: −log10 of the molar value.
Readings of pIC50 for the listed compounds
property_measured: pIC50

{"compound": "COc1cc2c(cc1OS(N)(=O)=O)CC[C@@H]1[C@@H]2CC[C@]2(C)[C@@H](O)CC[C@@H]12", "property_measured": "pIC50", "value": 7.47}
{"compound": "C[C@]12CC[C@@H]3c4ccc(OS(N)(=O)=O)cc4CC[C@H]3[C@@H]1CCC2=O [EMATE]", "property_measured": "pIC50", "value": 7.66}
{"compound": "COc1cc2c(cc1OS(N)(=O)=O)CC[C@@H]1[C@@H]2CC[C@]2(C)C(=O)CC[C@@H]12", "property_measured": "pIC50", "value": 7.38}
{"compound": "CSc1cc2c(cc1OS(N)(=O)=O)CC[C@@H]1[C@@H]2CC[C@]2(C)C(=O)CC[C@@H]12", "property_measured": "pIC50", "value": 6.92}
{"compound": "CCc1cc2c(cc1OS(N)(=O)=O)CC[C@@H]1[C@@H]2CC[C@]2(C)C(=O)CC[C@@H]12", "property_measured": "pIC50", "value": 5.74}
{"compound": "CCOc1cc2c(cc1OS(N)(=O)=O)CC[C@@H]1[C@@H]2CC[C@]2(C)C(=O)CC[C@@H]12", "property_measured": "pIC50", "value": 6.05}
{"compound": "CCc1cc2c(cc1OS(N)(=O)=O)CC[C@@H]1[C@@H]2CC[C@]2(C)[C@@H](O)CC[C@@H]12", "property_measured": "pIC50", "value": 6.00}

---

assay: Concentration required to inhibit the growth of HOP-6 human lung cancer cells by 50%; type: functional; details: Cancer cell lines
Readings of log10 GI50 for the listed compounds
property_measured: log10 GI50 (log10 of the value in µM)

{"smiles": "CCc1cc2c(cc1O)CC[C@@H]1[C@@H]2CC[C@]2(C)[C@@H](O)CC[C@@H]12", "log10 GI50": 0.79}
{"smiles": "COc1cc2c(cc1OS(N)(=O)=O)CC[C@@H]1[C@@H]2CC[C@]2(C)C(=O)CC[C@@H]12", "log10 GI50": -0.80}
{"smiles": "CSc1cc2c(cc1O)CC[C@@H]1[C@@H]2CC[C@]2(C)C(=O)CC[C@@H]12", "log10 GI50": 1.43}
{"smiles": "COc1cc2c(cc1O)CC[C@@H]1[C@@H]2CC[C@]2(C)[C@@H](O)CC[C@@H]12", "log10 GI50": -0.15}
{"smiles": "CSc1cc2c(cc1OS(N)(=O)=O)CC[C@@H]1[C@@H]2CC[C@]2(C)C(=O)CC[C@@H]12", "log10 GI50": 1.54}
{"smiles": "CCSc1cc2c(cc1O)CC[C@@H]1[C@@H]2CC[C@]2(C)[C@@H](O)CC[C@@H]12", "log10 GI50": 1.20}
{"smiles": "CCSc1cc2c(cc1OS(N)(=O)=O)CC[C@@H]1[C@@H]2CC[C@]2(C)C(=O)CC[C@@H]12", "log10 GI50": 0.84}

FYI, the data here is from ChEMBL document CHEMBL1144440.
